Kindly state composite z-score for each of the entries shown.
# Test system: XIP peptide (Xip251-270)
# Method: small-molecule binders of XIP peptide, primary screen, biochemical, small-molecule microarray, fluorescence 635/667 nm, 0.5 µg/mL protein (AID 1183)
# Reported conditions: small-molecule microarray binding, fluorescence 635 nm; higher = more signal

In: Looking for the measured composite z-score of `COc1ccc(NC(=O)O[C@H]2[C@H](OC(=O)Nc3ccccc3)[C@H](OC(=O)Nc3ccccc3)[C@@H](OC)O[C@@H]2CO)cc1` , can you help?
Out: 0.934

In: Looking for the measured composite z-score of `Cc1ccc(S[C@]2(C(=O)O)CC(=O)N(Cc3cc(C(F)(F)F)cc(C(F)(F)F)c3)[C@@H]2c2ccc(CO)cc2)cc1` , can you help?
Out: -1.25

In: Looking for the measured composite z-score of `[N-]=[N+]=NCc1ccccc1C[C@]1(C(N)=O)N=C(c2ccc(OCCCO)cc2)O[C@H]1c1ccccc1` , can you help?
Out: 0.692

In: Looking for the measured composite z-score of `C=C[C@@H](OC)[C@H](OC(=O)Nc1ccc(SC)cc1)c1ccc(O)c(F)c1` , can you help?
Out: 0.0562

In: Looking for the measured composite z-score of `Cc1ccc(S[C@]2(C(=O)NCCCN(C)C)CC(=O)N(C3CCCCC3)[C@@H]2c2ccc(CO)cc2)cc1` , can you help?
Out: 0.0388

In: Looking for the measured composite z-score of CC(C)C(CO)N1C(=O)[C@@H]2C3C(=O)OCCC/C=C\[C@H]3OC23C=CCN(C(C)(C)C)C(=O)[C@@H]13 (some centres not stated) , can you help?
Out: -0.201

In: Looking for the measured composite z-score of [N-]=[N+]=NCc1ccccc1[C@@H]1OC(c2ccc(OCCCO)cc2)=N[C@]1(CCS(=O)(=O)c1ccccc1)C(=O)NCC(O)CO (some centres not stated) , can you help?
Out: 0.831

----------
# Method: E. coli DRC41 culture turbidity changes, primary screen, E. coli filamentation inducer project, strain DRC41, OD650, 48 h (AID 1152);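 also: E. coli MC1000 strain DRC41 lacking acrAB efflux pump and sulA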
# Reported conditions: E. coli DRC41 (acrAB sulA), higher = more signal, called active from +8 up or from −8 down
Recorded endpoint: z-score
Give your answer as a number; write no unit.

In: Looking for the measured z-score of `COc1ccc(CCN2C(=O)[C@@]3(Cc4ccccc42)c2ccccc2C(=O)N(Cc2ccccc2OC)[C@H]3c2ccc(CO)cc2)cc1` , can you help?
Out: 2.06

In: Looking for the measured z-score of C=CCC(OC(C)=O)[C@@H]1[C@@H](N(Cc2cc3ccccc3o2)C(=O)c2ccc(C)cc2)c2cc(OCCCO)ccc2N1C(=O)Cc1ccc(OC)cc1 (some centres undefined) , can you help?
Out: 1.72

In: Looking for the measured z-score of `CC1=C[C@@]2(CO)C(=O)[C@]3(CO3)[C@@H]1[C@H]1[C@]2(C)C=C(CO)C(=O)[C@]12CO2` , can you help?
Out: 0.806

In: Looking for the measured z-score of O=C1C2C=CC(C(O)c3ccc(Br)cc3)N(Nc3ccccc3F)C2C(=O)N1c1ccccc1 (centres undefined) , can you help?
Out: 0.894

----------
# Method: basal RPMI8226 viability, no added stimulus, profiling panel, cell-based, calcein-AM fluorescence, 48 h, PK04 Diversity Set (AID 1166);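 also: cells grown under basal conditions without added stimulus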
# Reported conditions: RPMI8226 myeloma viability, higher = more signal
Kindly state z-score for each of the entries shown.

In: Looking for the measured z-score of `CCOC(=O)C[C@H]1[C@H](OC(=O)c2cc3ccccc3oc2=O)[C@@H](NC(=O)c2ccc(-c3ccccc3)cc2)c2cc(OCCCO)ccc2N1C(=O)c1ccc2ccccc2n1` , can you help?
Out: 0.624

In: Looking for the measured z-score of `COc1ccc([Si](C)(C)[C@@H]2[C@@H](CC(=O)N(CCO)Cc3ccccc3)O[C@]3(C(=O)N(c4ccccc4)c4ccccc43)[C@H]2C)cc1` , can you help?
Out: -4.36

In: Looking for the measured z-score of `CC(C)OC(=O)C=C1C[C@@H](c2ccc(C(F)(F)F)cc2)O[C@@H](c2ccc(C(F)(F)F)cc2)O1` , can you help?
Out: -1.51

In: Looking for the measured z-score of OCCCC1=CC(c2ccc(CN3CCCC3)cc2)N(Cc2sc3ccccc3c2Cl)CC1 (stereo unspecified) , can you help?
Out: -3.64

In: Looking for the measured z-score of CN1C(=O)C2C=CC(C(O)c3cccc4ccccc34)N(N3CCCCC3)C2C1=O (stereo unspecified) , can you help?
Out: -0.493

In: Looking for the measured z-score of `CC(C)C(=C=CC[C@H](O)c1ccc(OCCO)cc1)C[C@H](O)c1ccccn1` , can you help?
Out: -0.121

In: Looking for the measured z-score of COc1ccc(C(O)C2C=CC3C(=O)N(c4ccccc4)C(=O)C3N2Nc2ccc([N+](=O)[O-])cc2)cc1 (stereo unspecified) , can you help?
Out: 0.0223

In: Looking for the measured z-score of `CCOC(=O)C[C@H]1[C@H](OC(=O)c2ccc(C(=O)c3ccccc3)cc2)[C@@H](NC(=O)Cc2ccc(OC)cc2)c2cc(OCCCO)ccc2N1C(=O)c1ccccc1` , can you help?
Out: -0.399

In: Looking for the measured z-score of `C=C(COC)/C(=C/C[C@H](OC(C)=O)c1ccc(OCCO)cc1)c1cc(C(=O)OC)ccc1OC` , can you help?
Out: 0.598

In: Looking for the measured z-score of `COc1ccc([Si](C)(C)[C@@H]2[C@@H](CC(=O)N3Cc4ccccc4C[C@H]3CO)O[C@]3(C(=O)N(Cc4cccc(N5C(=O)c6cccc7cccc5c67)c4)c4ccccc43)[C@H]2C)cc1` , can you help?
Out: -1.41

In: Looking for the measured z-score of `C=CCOC(=O)[C@H]1[C@@H]2C(=O)O[C@@H](c3ccccc3)[C@@H](c3ccccc3)N2[C@@H](c2ccc(OCCOC(=O)[C@@H]3C[C@@H]4C(=O)N5CCC[C@H]5C(=O)N4[C@@H]3c3ccc(O)cc3)cc2)[C@]12C(=O)Nc1ccc(I)cc12` , can you help?
Out: -0.0749

In: Looking for the measured z-score of C=CCC(OC(C)=O)[C@@H]1[C@@H](N(Cc2ccc(-c3cccc(C(F)(F)F)c3)o2)C(=O)c2ccc(C)cc2)c2cc(OCCCO)ccc2N1C(=O)c1ccc2ccccc2c1 (stereo partly specified) , can you help?
Out: 0.966

In: Looking for the measured z-score of O=C1OCC=C[C@H]2OC34C=CCN(Cn5nnc6ccccc65)C(=O)[C@H]3N(CCCO)C(=O)[C@@H]4[C@@H]12 (stereo partly specified) , can you help?
Out: 0.0897

In: Looking for the measured z-score of `O=C1O[C@@H](c2ccccc2)[C@@H](c2ccccc2)N2[C@@H](c3ccccc3OCCO)[C@]3(C(=O)Nc4ccc(C#CCCO)cc43)[C@@H](C(=O)N3CCCCCCC3)[C@H]12` , can you help?
Out: -4.14

In: Looking for the measured z-score of `COCCOC(=O)N1C(=O)[C@@]2(c3cc(C#CC4=CCCCC4)ccc31)[C@H](c1ccccc1OCCO)N1[C@H](c3ccccc3)[C@H](c3ccccc3)OC(=O)[C@H]1[C@@H]2C(=O)Nc1nc2ccccc2s1` , can you help?
Out: -3.43

In: Looking for the measured z-score of `COC(=O)c1c(CC[C@@H](CO)NC(=O)N2CCC[C@H]2Cn2cc(Cc3ccccc3)nn2)oc(C(C)=O)c1C(=O)OC` , can you help?
Out: -1.41

Origin of the recorded values: PubChem BioAssay
